solubility kinetic at 2 h values by entry
# Assay comment: Kinetic aqueous solubility of the compound in pH 7.4 PBS at 1 to 100 uM after 2 hrs by turbidimetric method
# Format: physicochemical
# Condition: read-out: Kinetic_solubility

| Compound | Result qualifier | solubility kinetic at 2 h / µM |
| --- | --- | --- |
| CS(=O)(=O)Nc1cccc(-c2nc(/C=C3\SC(=S)NC3=O)cs2)c1 | = | 34 |
| O=C1NC(=S)n2c1cc1ccc(-c3ccco3)cc1c2=O | = | 11.5 |
| N=C1NC(=O)/C(=C/c2csc(-c3ccc(C(F)(F)F)cc3)n2)S1 | < | 5 |
| O=C1NC(=S)n2c1cc1ccc(Oc3ccc(F)cc3)cc1c2=O | = | 65 |
| O=C1NC(=S)n2c1cc1c3c(Cl)cc(Cl)cc3n(Cc3ccccc3)c1c2=O | < | 1 |
| O=C1NC(=S)N2C(=O)C3Nc4cc(Cl)cc(Cl)c4C3C=C12 (centres undefined) | < | 5 |
| O=C1NC(=S)S/C1=C\c1csc(-c2ccc(C(F)(F)F)cc2)n1 | < | 5 |
| O=C1NC(=S)S/C1=C\c1csc(-c2cccc(Cl)c2)n1 | < | 5 |
| O=C1NC(=S)n2c1cc1ccc(Oc3ccccc3)cc1c2=O | = | 65 |

----------
# System name: UniProtKB O60674
# Sequence (O60674 whole entry, the tested form may be a part): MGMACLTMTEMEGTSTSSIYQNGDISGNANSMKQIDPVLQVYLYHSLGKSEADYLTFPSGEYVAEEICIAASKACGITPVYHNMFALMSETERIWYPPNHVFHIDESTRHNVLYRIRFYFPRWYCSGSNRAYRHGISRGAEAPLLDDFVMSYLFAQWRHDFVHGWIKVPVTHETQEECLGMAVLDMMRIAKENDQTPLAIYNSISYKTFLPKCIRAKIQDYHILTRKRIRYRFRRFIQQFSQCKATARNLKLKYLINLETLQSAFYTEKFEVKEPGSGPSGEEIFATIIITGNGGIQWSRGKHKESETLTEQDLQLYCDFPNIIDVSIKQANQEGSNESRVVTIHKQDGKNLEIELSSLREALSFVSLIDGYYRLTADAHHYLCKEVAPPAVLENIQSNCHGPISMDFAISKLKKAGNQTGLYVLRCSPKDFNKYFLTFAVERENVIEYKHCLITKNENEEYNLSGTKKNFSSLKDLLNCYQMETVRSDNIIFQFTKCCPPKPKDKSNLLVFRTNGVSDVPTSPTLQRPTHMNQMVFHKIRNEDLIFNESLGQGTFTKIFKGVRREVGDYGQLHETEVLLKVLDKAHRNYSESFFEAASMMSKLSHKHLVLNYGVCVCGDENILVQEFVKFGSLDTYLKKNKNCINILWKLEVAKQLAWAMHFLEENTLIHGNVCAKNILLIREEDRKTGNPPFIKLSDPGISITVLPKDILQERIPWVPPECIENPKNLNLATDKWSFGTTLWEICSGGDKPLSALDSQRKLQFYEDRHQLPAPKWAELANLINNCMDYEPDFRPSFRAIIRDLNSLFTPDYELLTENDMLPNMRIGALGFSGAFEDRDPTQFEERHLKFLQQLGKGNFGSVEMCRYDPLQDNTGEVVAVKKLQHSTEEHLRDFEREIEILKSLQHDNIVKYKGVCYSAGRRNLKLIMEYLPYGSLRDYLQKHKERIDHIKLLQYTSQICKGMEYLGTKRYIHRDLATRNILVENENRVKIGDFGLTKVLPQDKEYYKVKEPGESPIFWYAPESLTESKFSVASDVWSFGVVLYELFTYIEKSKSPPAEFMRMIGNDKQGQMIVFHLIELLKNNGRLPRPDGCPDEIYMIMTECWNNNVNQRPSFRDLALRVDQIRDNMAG
# Assay comment: Inhibition of partial length wild type human JAK2 (A829 to G1132 residues) expressed in mammalian expression system assessed as residual activity at 10 uM by KINOMEscan assay relative to control

| Compound | Units symbol | Activity |
| --- | --- | --- |
| O=C1NC(=S)S/C1=C\c1cscn1 | % | 89 |
| O=C1NC(=S)S/C1=C\c1csc(-c2ccc(C(F)(F)F)cc2)n1 | % | 106 |
| O=C1NC(=S)N2C(=O)C3Nc4cc(Cl)cc(Cl)c4C3C=C12 (centres undefined) | % | 100 |
| N=C1NC(=O)/C(=C/c2csc(-c3ccc(C(F)(F)F)cc3)n2)S1 | % | 116 |

----------
# Assay comment: Inhibition of human CK2 assessed as residual activity at 10 uM by KINOMEscan assay relative to control
Activity values by entry
Quantity measured: Activity (%)

| Molecule | Obs value |
| --- | --- |
| O=C1NC(=S)N2C(=O)C3Nc4cc(Cl)cc(Cl)c4C3C=C12 (centres undefined) | 82 |
| N=C1NC(=O)/C(=C/c2csc(-c3ccc(C(F)(F)F)cc3)n2)S1 | 117 |
| O=C1NC(=S)S/C1=C\c1cscn1 | -3 |
| O=C1NC(=S)S/C1=C\c1csc(-c2ccc(C(F)(F)F)cc2)n1 | 53 |

----------
Activity values by entry
# System name: Vascular endothelial growth factor receptor 2 (Homo sapiens) (UniProt P35968)
# Sequence (P35968 whole entry, the tested form may be a part): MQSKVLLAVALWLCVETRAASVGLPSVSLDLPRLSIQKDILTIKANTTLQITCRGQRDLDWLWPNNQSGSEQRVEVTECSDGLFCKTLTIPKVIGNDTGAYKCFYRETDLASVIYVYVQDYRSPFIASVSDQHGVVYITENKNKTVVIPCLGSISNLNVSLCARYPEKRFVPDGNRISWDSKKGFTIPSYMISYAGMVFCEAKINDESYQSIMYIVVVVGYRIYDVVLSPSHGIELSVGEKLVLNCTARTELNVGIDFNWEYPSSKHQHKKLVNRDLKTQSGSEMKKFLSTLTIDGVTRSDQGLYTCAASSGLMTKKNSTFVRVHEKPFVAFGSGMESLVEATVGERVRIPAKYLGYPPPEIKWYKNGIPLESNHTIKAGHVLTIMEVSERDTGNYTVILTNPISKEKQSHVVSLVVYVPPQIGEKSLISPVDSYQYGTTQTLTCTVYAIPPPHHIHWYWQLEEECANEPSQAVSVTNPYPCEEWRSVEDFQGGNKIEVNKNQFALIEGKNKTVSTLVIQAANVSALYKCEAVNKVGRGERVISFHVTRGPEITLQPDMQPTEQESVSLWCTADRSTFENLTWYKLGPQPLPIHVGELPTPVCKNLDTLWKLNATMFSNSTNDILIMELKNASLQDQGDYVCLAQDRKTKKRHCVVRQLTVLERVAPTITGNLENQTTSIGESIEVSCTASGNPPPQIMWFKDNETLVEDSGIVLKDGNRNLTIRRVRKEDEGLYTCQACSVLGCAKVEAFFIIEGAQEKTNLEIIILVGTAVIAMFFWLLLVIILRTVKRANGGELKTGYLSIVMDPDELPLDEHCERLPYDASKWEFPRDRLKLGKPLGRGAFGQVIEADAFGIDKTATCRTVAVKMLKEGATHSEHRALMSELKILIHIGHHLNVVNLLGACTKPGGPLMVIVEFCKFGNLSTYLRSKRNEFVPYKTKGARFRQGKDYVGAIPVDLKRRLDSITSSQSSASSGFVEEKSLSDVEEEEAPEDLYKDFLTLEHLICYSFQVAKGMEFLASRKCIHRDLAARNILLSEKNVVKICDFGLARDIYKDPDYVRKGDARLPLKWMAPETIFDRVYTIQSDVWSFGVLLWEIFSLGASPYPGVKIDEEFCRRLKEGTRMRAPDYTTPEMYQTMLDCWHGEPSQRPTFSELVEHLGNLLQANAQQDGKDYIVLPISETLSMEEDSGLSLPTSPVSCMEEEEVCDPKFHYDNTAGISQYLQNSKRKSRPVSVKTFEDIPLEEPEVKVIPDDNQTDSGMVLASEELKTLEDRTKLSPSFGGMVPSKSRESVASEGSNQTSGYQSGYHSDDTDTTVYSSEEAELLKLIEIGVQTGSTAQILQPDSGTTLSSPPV
# Assay comment: Inhibition of partial length wild type human KDR (R787 to P1253 residues) expressed in mammalian expression system assessed as residual activity at 10 uM by KINOMEscan assay relative to control
Quantity measured: Activity (%)

| Molecule | Quantity measured | Obs value |
| --- | --- | --- |
| O=C1NC(=S)S/C1=C\c1cscn1 | Activity | 114 |
| O=C1NC(=S)N2C(=O)C3Nc4cc(Cl)cc(Cl)c4C3C=C12 (centres undefined) | Activity | 99 |
| N=C1NC(=O)/C(=C/c2csc(-c3ccc(C(F)(F)F)cc3)n2)S1 | Activity | 88 |
| O=C1NC(=S)S/C1=C\c1csc(-c2ccc(C(F)(F)F)cc2)n1 | Activity | 110 |

----------
# System name: Serine/threonine-protein kinase pim-1 (Homo sapiens, UniProt P11309)
# Sequence (P11309 whole entry, looked up): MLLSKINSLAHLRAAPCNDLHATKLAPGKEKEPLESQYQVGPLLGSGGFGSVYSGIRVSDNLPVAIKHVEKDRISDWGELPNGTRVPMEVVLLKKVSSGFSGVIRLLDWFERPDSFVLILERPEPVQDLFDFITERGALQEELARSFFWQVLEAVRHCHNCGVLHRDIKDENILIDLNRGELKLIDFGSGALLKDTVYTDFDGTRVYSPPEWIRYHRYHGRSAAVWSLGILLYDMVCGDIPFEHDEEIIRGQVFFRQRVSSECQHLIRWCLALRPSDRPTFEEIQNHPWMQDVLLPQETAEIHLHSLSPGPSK
# Assay comment: Inhibition of recombinant PIM1 (unknown origin) assessed as change in melting temperature at 10 uM by SYPRO orange dye-based differential scanning fluorimetric method
// bucketize ΔTm: A = under 7 °C, B = from 7 °C up to 10 °C, C = 10 °C and over

| Molecule | System name | Class name |
| --- | --- | --- |
| COc1ccc(Oc2ccc3cc4n(c(=O)c3c2)C(=S)NC4=O)cc1 | Serine/threonine-protein kinase pim-1 (Homo sapiens, UniProt P11309) | A |
| O=C1NC(=S)S/C1=C\c1csc(-c2ccco2)n1 | Serine/threonine-protein kinase pim-1 (Homo sapiens, UniProt P11309) | C |
| O=C1NC(=S)S/C1=C\c1c[nH]c2ncccc12 | Serine/threonine-protein kinase pim-1 (Homo sapiens, UniProt P11309) | A |
| O=C1NC(=S)n2c1cc1ccc(Cl)cc1c2=O | Serine/threonine-protein kinase pim-1 (Homo sapiens, UniProt P11309) | A |
| O=C1NC(=S)S/C1=C\c1csc(-c2ccccc2O)n1 | Serine/threonine-protein kinase pim-1 (Homo sapiens, UniProt P11309) | C |
| O=C1NC(=S)S/C1=C\c1csc(-c2cccc(N3CCCCC3)c2)n1 | Serine/threonine-protein kinase pim-1 (Homo sapiens, UniProt P11309) | C |
| O=C1NC(=S)S/C1=C\c1cccc2ccsc12 | Serine/threonine-protein kinase pim-1 (Homo sapiens, UniProt P11309) | C |
| O=C1NC(=S)S/C1=C\c1csc(-c2ccc(O)cc2)n1 | Serine/threonine-protein kinase pim-1 (Homo sapiens, UniProt P11309) | C |
| O=C1NC(=S)N2C(=O)C3Nc4ccccc4C3C=C12 (stereo not drawn) | Serine/threonine-protein kinase pim-1 (Homo sapiens, UniProt P11309) | A |
| O=C1NC(=S)S/C1=C\c1ccc2ccccc2n1 | Serine/threonine-protein kinase pim-1 (Homo sapiens, UniProt P11309) | B |
| Cn1c(/C=C2\SC(=S)NC2=O)cc2sccc21 | Serine/threonine-protein kinase pim-1 (Homo sapiens, UniProt P11309) | C |
| O=C1NC(=S)S/C1=C\c1cccc2ccccc12 | Serine/threonine-protein kinase pim-1 (Homo sapiens, UniProt P11309) | B |
| O=C1NC(=S)S/C1=C\c1ccc2ccccc2c1 | Serine/threonine-protein kinase pim-1 (Homo sapiens, UniProt P11309) | B |
| O=C1NC(=S)S/C1=C\c1c[nH]c2ccccc12 | Serine/threonine-protein kinase pim-1 (Homo sapiens, UniProt P11309) | C |
| O=C1NC(=S)n2c1cc1ccc(Sc3ccccc3)cc1c2=O | Serine/threonine-protein kinase pim-1 (Homo sapiens, UniProt P11309) | A |
| O=C1NC(=S)S/C1=C\c1coc2ccccc12 | Serine/threonine-protein kinase pim-1 (Homo sapiens, UniProt P11309) | A |
| O=C1NC(=S)n2c1cc1ccc(-c3ccccc3)cc1c2=O | Serine/threonine-protein kinase pim-1 (Homo sapiens, UniProt P11309) | A |
| O=C1NC(=S)S/C1=C\c1ccccc1Cl | Serine/threonine-protein kinase pim-1 (Homo sapiens, UniProt P11309) | A |
| CS(=O)(=O)c1ccc(-c2nc(/C=C3\SC(=S)NC3=O)cs2)cc1 | Serine/threonine-protein kinase pim-1 (Homo sapiens, UniProt P11309) | C |
| O=C1NC(=S)S/C1=C\c1csc(-c2cccnc2)n1 | Serine/threonine-protein kinase pim-1 (Homo sapiens, UniProt P11309) | C |
| O=C1NC(=S)N2C(=O)C3Nc4cc(Cl)cc(Cl)c4C3C=C12 (stereo not drawn) | Serine/threonine-protein kinase pim-1 (Homo sapiens, UniProt P11309) | B |
| O=C1NC(=S)n2c1cc1ccc(Oc3ccccc3)cc1c2=O | Serine/threonine-protein kinase pim-1 (Homo sapiens, UniProt P11309) | A |
| O=C1NC(=S)S/C1=C\c1csc(-c2cccc(Cl)c2)n1 | Serine/threonine-protein kinase pim-1 (Homo sapiens, UniProt P11309) | C |
| CS(=O)(=O)Nc1cccc(-c2nc(/C=C3\SC(=S)NC3=O)cs2)c1 | Serine/threonine-protein kinase pim-1 (Homo sapiens, UniProt P11309) | B |
| CN1CCN(c2cc(-c3nc(/C=C4\SC(=S)NC4=O)cs3)ccn2)CC1 | Serine/threonine-protein kinase pim-1 (Homo sapiens, UniProt P11309) | C |
| O=C1NC(=S)S/C1=C\c1ccc2cccnc2n1 | Serine/threonine-protein kinase pim-1 (Homo sapiens, UniProt P11309) | A |
| O=C1NC(=S)S/C1=C\c1csc(-c2cccc(C(F)(F)F)c2)n1 | Serine/threonine-protein kinase pim-1 (Homo sapiens, UniProt P11309) | C |
| Cc1ccc(Sc2ccc3cc4n(c(=O)c3c2)C(=S)NC4=O)cc1 | Serine/threonine-protein kinase pim-1 (Homo sapiens, UniProt P11309) | B |
| O=C1NC(=S)S/C1=C\c1csc(-c2ccsc2)n1 | Serine/threonine-protein kinase pim-1 (Homo sapiens, UniProt P11309) | C |
| O=C1NC(=S)S/C1=C\c1csc(-c2ccccc2)n1 | Serine/threonine-protein kinase pim-1 (Homo sapiens, UniProt P11309) | C |
| CN(C)S(=O)(=O)Nc1cccc(-c2nc(/C=C3\SC(=S)NC3=O)cs2)c1 | Serine/threonine-protein kinase pim-1 (Homo sapiens, UniProt P11309) | C |
| COc1cccc(-c2nc(/C=C3\SC(=S)NC3=O)cs2)c1 | Serine/threonine-protein kinase pim-1 (Homo sapiens, UniProt P11309) | C |
| O=C1NC(=S)S/C1=C\c1csc(-c2ccccc2C(F)(F)F)n1 | Serine/threonine-protein kinase pim-1 (Homo sapiens, UniProt P11309) | B |
| O=C1NC(=S)S/C1=C\c1nccs1 | Serine/threonine-protein kinase pim-1 (Homo sapiens, UniProt P11309) | A |
| O=C1NC(=S)S/C1=C\c1cncs1 | Serine/threonine-protein kinase pim-1 (Homo sapiens, UniProt P11309) | A |
| O=C1NC(=S)S/C1=C\c1csc(-c2ccc(CN3CCCCC3)cc2)n1 | Serine/threonine-protein kinase pim-1 (Homo sapiens, UniProt P11309) | C |
| O=C1NC(=O)/C(=C/c2csc(-c3ccc(C(F)(F)F)cc3)n2)S1 | Serine/threonine-protein kinase pim-1 (Homo sapiens, UniProt P11309) | B |
